- target.system: NHERF-1 PDZ1 (Homo sapiens, UniProt O14745)
- Sequence (O14745 14-94 limits assumed): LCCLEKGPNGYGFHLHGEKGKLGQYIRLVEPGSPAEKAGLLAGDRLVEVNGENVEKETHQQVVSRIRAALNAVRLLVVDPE
- test.description: competitive fluorescence polarization binding, NHERF-1 PDZ1
Where no end group is shown, it is not given here.
measured.quantity: pKi
// scale note: pKi = -log10(conc_M); give the bare number

What does the record list as pKi for "ANSRWQVTRV" ? 5.55

----------
- target.system: TIP-1 (Homo sapiens, UniProt O14907)
- Sequence (O14907 1-124): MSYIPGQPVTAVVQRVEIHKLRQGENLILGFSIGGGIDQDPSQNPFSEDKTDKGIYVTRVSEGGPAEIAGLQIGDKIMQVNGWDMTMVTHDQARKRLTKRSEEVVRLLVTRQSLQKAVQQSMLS
- test.description: competitive fluorescence polarization binding, TIP-1
pKi: −log10 of the molar value. Where no end group is shown, it is not given here.
measured.quantity: pKi

substance: Ac-LPVTRV [Ac-LPVTRV]
pKi: < 2.30
--
substance: ANSRLPTSK(Ac)I
pKi: < 2.30

pKi for "ANSRWQVTRV" ? 7.24
